Measured values drawn from ChEMBL document CHEMBL1140360 for this set.

Target: Voltage-dependent T-type calcium channel subunit alpha-1G (Homo sapiens)
Sequence (O43497 whole entry): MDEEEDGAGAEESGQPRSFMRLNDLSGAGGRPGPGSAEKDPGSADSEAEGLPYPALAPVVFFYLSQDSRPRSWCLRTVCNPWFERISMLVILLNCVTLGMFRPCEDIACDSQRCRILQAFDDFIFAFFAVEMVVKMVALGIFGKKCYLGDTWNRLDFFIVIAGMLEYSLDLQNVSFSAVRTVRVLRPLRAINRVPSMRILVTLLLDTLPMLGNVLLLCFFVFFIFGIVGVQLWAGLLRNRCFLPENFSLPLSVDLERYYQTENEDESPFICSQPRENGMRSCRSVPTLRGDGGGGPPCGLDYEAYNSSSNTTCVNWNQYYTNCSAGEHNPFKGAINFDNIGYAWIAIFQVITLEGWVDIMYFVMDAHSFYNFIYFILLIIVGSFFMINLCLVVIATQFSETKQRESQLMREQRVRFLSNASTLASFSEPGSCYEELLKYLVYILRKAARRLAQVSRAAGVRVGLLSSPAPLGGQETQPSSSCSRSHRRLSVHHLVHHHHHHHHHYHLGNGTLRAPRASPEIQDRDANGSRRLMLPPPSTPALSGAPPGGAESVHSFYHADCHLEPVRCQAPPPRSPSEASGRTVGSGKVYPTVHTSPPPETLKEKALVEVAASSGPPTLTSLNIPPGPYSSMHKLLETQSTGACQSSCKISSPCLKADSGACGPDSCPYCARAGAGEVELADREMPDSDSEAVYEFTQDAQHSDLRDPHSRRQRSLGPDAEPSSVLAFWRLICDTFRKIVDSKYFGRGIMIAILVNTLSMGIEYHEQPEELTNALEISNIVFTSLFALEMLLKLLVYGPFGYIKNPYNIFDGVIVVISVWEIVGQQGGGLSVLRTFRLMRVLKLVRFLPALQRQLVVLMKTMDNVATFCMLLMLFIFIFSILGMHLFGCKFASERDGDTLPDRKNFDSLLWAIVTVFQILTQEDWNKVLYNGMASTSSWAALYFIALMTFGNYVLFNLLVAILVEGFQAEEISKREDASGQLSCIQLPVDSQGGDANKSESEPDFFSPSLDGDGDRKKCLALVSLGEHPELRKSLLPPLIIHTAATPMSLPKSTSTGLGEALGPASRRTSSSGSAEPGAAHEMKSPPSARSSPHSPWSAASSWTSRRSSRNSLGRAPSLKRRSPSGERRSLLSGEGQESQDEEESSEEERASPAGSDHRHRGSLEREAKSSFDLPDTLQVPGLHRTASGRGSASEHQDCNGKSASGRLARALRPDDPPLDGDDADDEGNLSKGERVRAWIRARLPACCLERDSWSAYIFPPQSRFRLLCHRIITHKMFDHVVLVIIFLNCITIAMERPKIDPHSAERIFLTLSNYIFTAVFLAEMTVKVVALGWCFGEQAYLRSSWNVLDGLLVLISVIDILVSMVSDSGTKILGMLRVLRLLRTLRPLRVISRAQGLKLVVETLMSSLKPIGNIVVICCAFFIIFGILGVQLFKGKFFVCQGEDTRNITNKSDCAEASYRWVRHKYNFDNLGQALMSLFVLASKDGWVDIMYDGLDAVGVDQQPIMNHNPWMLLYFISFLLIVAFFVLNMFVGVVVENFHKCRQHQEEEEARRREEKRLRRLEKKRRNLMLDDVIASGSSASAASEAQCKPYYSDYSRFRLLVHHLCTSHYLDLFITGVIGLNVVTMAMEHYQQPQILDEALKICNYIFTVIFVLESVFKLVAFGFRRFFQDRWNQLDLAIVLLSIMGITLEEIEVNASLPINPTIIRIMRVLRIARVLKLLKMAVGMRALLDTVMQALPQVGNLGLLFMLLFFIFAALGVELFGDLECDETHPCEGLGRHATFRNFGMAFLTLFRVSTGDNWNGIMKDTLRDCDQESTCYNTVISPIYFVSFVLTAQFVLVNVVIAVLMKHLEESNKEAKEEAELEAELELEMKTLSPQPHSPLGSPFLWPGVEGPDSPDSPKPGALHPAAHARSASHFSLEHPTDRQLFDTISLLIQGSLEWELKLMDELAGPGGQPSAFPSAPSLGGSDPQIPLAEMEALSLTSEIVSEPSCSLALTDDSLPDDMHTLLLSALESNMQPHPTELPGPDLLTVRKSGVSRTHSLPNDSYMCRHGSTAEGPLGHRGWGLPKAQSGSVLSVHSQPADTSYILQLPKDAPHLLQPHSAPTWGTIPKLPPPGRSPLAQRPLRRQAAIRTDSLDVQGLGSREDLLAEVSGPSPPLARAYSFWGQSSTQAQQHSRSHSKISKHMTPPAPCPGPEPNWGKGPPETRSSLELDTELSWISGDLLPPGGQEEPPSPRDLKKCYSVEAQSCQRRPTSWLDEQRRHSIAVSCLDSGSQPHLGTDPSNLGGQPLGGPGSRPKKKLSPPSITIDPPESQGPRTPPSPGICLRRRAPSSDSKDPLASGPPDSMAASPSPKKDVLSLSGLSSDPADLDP
Test details: Inhibition of T-type [Ca2+] channel (alpha1G) expressed in HEK293 cells
Each entry below carries its recorded pIC50.
Notebook: values listed as pIC50 are -log10 of the concentration (mol/L).

- NCCCCCN1C(Nc2ccc(-c3ccccc3)cc2)=Nc2ccccc2C1CC(=O)NCc1ccccc1 (stereo unspecified): 6.85
- COC(=O)CC1c2ccccc2N=C(Nc2ccc(-c3ccccc3)cc2)N1CCCCCN (stereo unspecified): 6.52
- CC(C)(C)OC(=O)NCCCCCNC1=Nc2ccccc2C(CC(=O)NCc2ccccc2)N1c1ccc(-c2ccccc2)cc1 (stereo unspecified): 6.80
- NCCCCCNC1=Nc2ccccc2C(CC(=O)NCc2ccccc2)N1c1ccc(-c2ccccc2)cc1 (stereo unspecified): 6.89
- O=C(CC1c2ccccc2N=C(N2CCCCC2)N1c1ccccc1)NCc1ccccc1 (stereo unspecified): 5.94

// assay Voltage-dependent T-type calcium channel subunit alpha-1G (Homo sapiens), entry COC(=O)CC1c2ccccc2N=C(NCCCCCNC(=O)OC(C)(C)C)N1c1ccc(-c2ccccc2)cc1 (stereo unspecified) , pIC50 value = 6.17
